Test system: Hepatotoxicity
Assay: FDA HLAED, serum glutamic oxaloacetic transaminase (SGOT) increase
Details: human
measured-metric: SGOT Increase - Number of Reports

molecule	subject-of-test	measured-metric	result
CC(C)NCC(O)COc1cccc2[nH]ccc12 (stereo not given)	Hepatotoxicity	SGOT Increase - Number of Reports	>= 4
C[C@]12CC[C@@H]3c4ccc(OC(=O)N(CCCl)CCCl)cc4CC[C@H]3[C@@H]1CC[C@@H]2O	Hepatotoxicity	SGOT Increase - Number of Reports	< 4
CC(C)(C)c1ccc(C(O)CCCN2CCC(C(O)(c3ccccc3)c3ccccc3)CC2)cc1 (stereo not given)	Hepatotoxicity	SGOT Increase - Number of Reports	>= 4
CC(CCc1ccccc1)NCC(O)c1ccc(O)c(C(N)=O)c1 (stereo not given)	Hepatotoxicity	SGOT Increase - Number of Reports	>= 4
CC(=O)O[C@H]1C[C@@H]2CC[C@@H]3[C@H](CC[C@@]4(C)[C@H]3C[C@H](N3CC[N+](C)(C)CC3)[C@@H]4OC(C)=O)[C@@]2(C)C[C@@H]1N1CC[N+](C)(C)CC1.[Br-].[Br-] [PIPECURONIUM BROMIDE]	Hepatotoxicity	SGOT Increase - Number of Reports	< 4
CC(C)c1ccc2oc3nc(N)c(C(=O)O)cc3c(=O)c2c1	Hepatotoxicity	SGOT Increase - Number of Reports	< 4
C[C@](N)(Cc1ccc(O)cc1)C(=O)O	Hepatotoxicity	SGOT Increase - Number of Reports	< 4
Nc1ccc(O)c(C(=O)O)c1	Hepatotoxicity	SGOT Increase - Number of Reports	>= 4
CCc1nn(CCCN2CCN(c3cccc(Cl)c3)CC2)c(=O)n1CCOc1ccccc1	Hepatotoxicity	SGOT Increase - Number of Reports	>= 4
COc1cc(CC2c3c(cc(OC)c(OC)c3OC)CC[N+]2(C)CCCOC(=O)CCC(=O)OCCC[N+]2(C)CCc3cc(OC)c(OC)c(OC)c3C2Cc2cc(OC)c(OC)c(OC)c2)cc(OC)c1OC.[Cl-].[Cl-] (stereo not given) [DOXACURIUM CHLORIDE]	Hepatotoxicity	SGOT Increase - Number of Reports	< 4
CC[C@H](C)C(=O)O[C@H]1C[C@H](O)C=C2C=C[C@H](C)[C@H](CC[C@@H](O)C[C@@H](O)CC(=O)O)[C@H]21	Hepatotoxicity	SGOT Increase - Number of Reports	>= 4
Clc1ccc2c(c1)C(N1CCNCC1)=Nc1ccccc1O2	Hepatotoxicity	SGOT Increase - Number of Reports	< 4
C[C@@]12CCCCC[C@@H](Cc3ccc(O)cc31)[C@@H]2N	Hepatotoxicity	SGOT Increase - Number of Reports	< 4
COCC1=C(C(=O)OC(C)OC(=O)OC(C)C)N2C(=O)[C@@H](NC(=O)/C(=N\OC)c3csc(N)n3)[C@H]2SC1 (stereo not given in full)	Hepatotoxicity	SGOT Increase - Number of Reports	>= 4
CC(C)NCC(O)COc1ccc(CCOCC2CC2)cc1 (stereo not given)	Hepatotoxicity	SGOT Increase - Number of Reports	< 4
Nc1ncnc2c1ncn2[C@@H]1O[C@H](CO)[C@@H](O)[C@H]1O	Hepatotoxicity	SGOT Increase - Number of Reports	< 4
CC(c1cc2ccccc2s1)N(O)C(N)=O (stereo not given)	Hepatotoxicity	SGOT Increase - Number of Reports	>= 4
NCCCNCCSP(=O)(O)O	Hepatotoxicity	SGOT Increase - Number of Reports	< 4
Cc1nnc2n1-c1ccc(Cl)cc1C(c1ccccc1Cl)=NC2	Hepatotoxicity	SGOT Increase - Number of Reports	< 4
N=C(N)NCC1COC2(CCCCC2)O1 (stereo not given)	Hepatotoxicity	SGOT Increase - Number of Reports	< 4
C#CCN(C)[C@H](C)Cc1ccccc1	Hepatotoxicity	SGOT Increase - Number of Reports	< 4
COc1cc(NCc2ccc3nc(N)nc(N)c3c2C)cc(OC)c1OC [TRIMETREXATE]	Hepatotoxicity	SGOT Increase - Number of Reports	< 4
CN(C)c1nc(N(C)C)nc(N(C)C)n1	Hepatotoxicity	SGOT Increase - Number of Reports	< 4
Nc1ccn([C@H]2CC[C@@H](CO)O2)c(=O)n1	Hepatotoxicity	SGOT Increase - Number of Reports	>= 4
Cc1ccc(C)c(OCCCC(C)(C)C(=O)O)c1	Hepatotoxicity	SGOT Increase - Number of Reports	< 4
Oc1ccc2c(c1)[C@@]13CCCC[C@@]1(O)[C@@H](C2)N(CC1CCC1)CC3	Hepatotoxicity	SGOT Increase - Number of Reports	< 4
OC(Cn1cncn1)(Cn1cncn1)c1ccc(F)cc1F	Hepatotoxicity	SGOT Increase - Number of Reports	>= 4
CC(C)(C)NC(=O)[C@@H]1CN(Cc2cccnc2)CCN1C[C@@H](O)C[C@@H](Cc1ccccc1)C(=O)N[C@H]1c2ccccc2C[C@H]1O.O	Hepatotoxicity	SGOT Increase - Number of Reports	>= 4
CCOC(=O)OC(C)OC(=O)[C@@H]1N2C(=O)[C@@H](NC(=O)[C@H](N)c3ccccc3)[C@H]2SC1(C)C (stereo not given in full)	Hepatotoxicity	SGOT Increase - Number of Reports	< 4
CCN(CC)CCNC(=O)c1cc(Cl)c(N)cc1OC [METOCLOPRAMIDE]	Hepatotoxicity	SGOT Increase - Number of Reports	< 4
CC(=O)CC(c1ccccc1)c1c(O)c2ccccc2oc1=O (stereo not given)	Hepatotoxicity	SGOT Increase - Number of Reports	>= 4
Cc1cccc(Nc2ccncc2S(=O)(=O)NC(=O)NC(C)C)c1 [TORSEMIDE]	Hepatotoxicity	SGOT Increase - Number of Reports	< 4
CO/N=C(\C(=O)N[C@@H]1C(=O)N2C(C(=O)O)=C(COC(C)=O)CS[C@H]12)c1csc(N)n1	Hepatotoxicity	SGOT Increase - Number of Reports	>= 4
CCCCNc1cc(C(=O)O)cc(S(N)(=O)=O)c1Oc1ccccc1 [BUMETANIDE]	Hepatotoxicity	SGOT Increase - Number of Reports	< 4
CCCCCCC(=O)O[C@H]1CC[C@H]2[C@@H]3CCC4=CC(=O)CC[C@]4(C)[C@H]3CC[C@]12C [TESTOSTERONE ENANTHATE]	Hepatotoxicity	SGOT Increase - Number of Reports	< 4
